# RUN_CONDITIONS: in ethanol, 308.2 K
REPORTED_METRIC: solubility (mole fraction)
Reply with just the number.

Task: GET /values?readout=solubility (mole fraction)&item= `Clc1cc(Cl)c(OCCBr)c(Cl)c1`
Output: 0.0134

---

# RUN_CONDITIONS: in acetonitrile, 318.2 K
REPORTED_METRIC: solubility (mole fraction)
Reply with just the number.

Task: GET /values?readout=solubility (mole fraction)&item= `Clc1cc(Cl)c(OCCBr)c(Cl)c1`
Output: 0.063

---

# RUN_CONDITIONS: in isopropanol, 278.1 K
REPORTED_METRIC: solubility (mole fraction)
Reply with just the number.

Task: GET /values?readout=solubility (mole fraction)&item= `Clc1cc(Cl)c(OCCBr)c(Cl)c1`
Output: 0.00574

---

# RUN_CONDITIONS: in n-propanol, 313.2 K
REPORTED_METRIC: solubility (mole fraction)
Reply with just the number.

Task: GET /values?readout=solubility (mole fraction)&item= `Clc1cc(Cl)c(OCCBr)c(Cl)c1`
Output: 0.0162

---

# RUN_CONDITIONS: in n-propanol, 288.2 K
REPORTED_METRIC: solubility (mole fraction)

Task: GET /values?readout=solubility (mole fraction)&item= `Clc1cc(Cl)c(OCCBr)c(Cl)c1`
Output: 0.0113

---

# RUN_CONDITIONS: in n-heptane, 313.1 K
REPORTED_METRIC: solubility (mole fraction)
Reply with just the number.

Task: GET /values?readout=solubility (mole fraction)&item= `Clc1cc(Cl)c(OCCBr)c(Cl)c1`
Output: 0.15

---

# RUN_CONDITIONS: in n-heptane, 323.1 K
REPORTED_METRIC: solubility (mole fraction)
Reply with just the number.

Task: GET /values?readout=solubility (mole fraction)&item= `Clc1cc(Cl)c(OCCBr)c(Cl)c1`
Output: 0.22

---

# RUN_CONDITIONS: in ethanol, 283.1 K
REPORTED_METRIC: solubility (mole fraction)
Reply with just the number.

Task: GET /values?readout=solubility (mole fraction)&item= `Clc1cc(Cl)c(OCCBr)c(Cl)c1`
Output: 0.00794

---

# RUN_CONDITIONS: in n-propanol, 303.2 K
REPORTED_METRIC: solubility (mole fraction)
Reply with just the number.

Task: GET /values?readout=solubility (mole fraction)&item= `Clc1cc(Cl)c(OCCBr)c(Cl)c1`
Output: 0.014

---

# RUN_CONDITIONS: in n-heptane, 288.1 K
REPORTED_METRIC: solubility (mole fraction)
Reply with just the number.

Task: GET /values?readout=solubility (mole fraction)&item= `Clc1cc(Cl)c(OCCBr)c(Cl)c1`
Output: 0.057

---

# RUN_CONDITIONS: in acetone, 298.2 K
REPORTED_METRIC: solubility (mole fraction)
Reply with just the number.

Task: GET /values?readout=solubility (mole fraction)&item= `Clc1cc(Cl)c(OCCBr)c(Cl)c1`
Output: 0.146

---

# RUN_CONDITIONS: in n-propanol, 323.2 K
REPORTED_METRIC: solubility (mole fraction)
Reply with just the number.

Task: GET /values?readout=solubility (mole fraction)&item= `Clc1cc(Cl)c(OCCBr)c(Cl)c1`
Output: 0.0187

---

# RUN_CONDITIONS: in n-propanol, 278.1 K
REPORTED_METRIC: solubility (mole fraction)
Reply with just the number.

Task: GET /values?readout=solubility (mole fraction)&item= `Clc1cc(Cl)c(OCCBr)c(Cl)c1`
Output: 0.0098

Data provenance is BigSolDB 2.1.
